Target: PRMT5-MEP50 enzyme complex (Homo sapiens, UniProt O14744)
Construct: Full-length (FL)-PRMT5-MEP50 enzyme complex (recombinant proteins from baculovirus-transfected Sf21 cells); made in house; host or cells: baculovirus-transfected Sf21 insect cells
Sequence (O14744 whole entry): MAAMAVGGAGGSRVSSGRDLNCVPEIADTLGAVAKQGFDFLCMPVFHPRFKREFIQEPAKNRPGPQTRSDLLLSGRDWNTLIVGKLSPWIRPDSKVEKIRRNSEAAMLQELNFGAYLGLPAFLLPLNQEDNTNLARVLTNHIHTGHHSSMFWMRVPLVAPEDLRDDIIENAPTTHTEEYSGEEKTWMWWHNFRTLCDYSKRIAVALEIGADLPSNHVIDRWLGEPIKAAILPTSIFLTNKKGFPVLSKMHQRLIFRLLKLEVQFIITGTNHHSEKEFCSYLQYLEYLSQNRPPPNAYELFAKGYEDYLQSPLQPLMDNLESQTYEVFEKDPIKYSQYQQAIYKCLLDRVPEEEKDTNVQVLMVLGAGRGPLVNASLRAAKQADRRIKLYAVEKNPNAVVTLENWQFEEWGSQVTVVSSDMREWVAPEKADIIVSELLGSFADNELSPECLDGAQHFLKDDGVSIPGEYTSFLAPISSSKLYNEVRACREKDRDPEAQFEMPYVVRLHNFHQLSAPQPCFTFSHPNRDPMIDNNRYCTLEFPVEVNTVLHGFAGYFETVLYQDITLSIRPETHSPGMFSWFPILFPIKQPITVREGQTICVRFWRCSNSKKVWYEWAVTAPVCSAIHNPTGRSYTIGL
Sequence (Q9BQA1 whole entry partner): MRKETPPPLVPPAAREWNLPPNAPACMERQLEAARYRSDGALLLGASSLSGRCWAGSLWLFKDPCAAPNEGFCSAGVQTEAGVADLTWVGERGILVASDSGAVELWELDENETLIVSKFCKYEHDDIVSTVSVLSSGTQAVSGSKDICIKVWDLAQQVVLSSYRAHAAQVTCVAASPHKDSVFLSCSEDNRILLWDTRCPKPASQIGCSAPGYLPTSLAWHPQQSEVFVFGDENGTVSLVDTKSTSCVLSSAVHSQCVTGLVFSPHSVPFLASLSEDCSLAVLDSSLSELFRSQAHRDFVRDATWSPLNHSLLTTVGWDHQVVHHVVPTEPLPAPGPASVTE
Assay: PRMT5-MEP50 Enzyme Methylation Assay
Type: biochemical
Conditions: recombinant FL-PRMT5-MEP50, biotinylated H4R3(Me1) peptide, 15 μM SAM; single EC50 (4 parameter sigmoidal fit) or first EC50 of 7 parameter biphasic fit; read-out: Enzyme Methylation Assay (EC50 or EC50_1)
value type: EC50

Would you please look over these solved cases?
{"compound": "C[C@@]1(O)[C@@H]([C@H](O)c2ccc(Cl)c(Cl)c2)O[C@@H](n2ccc3c(N)ncnc32)[C@@H]1O [Example 13]", "endpoint value": "1.47 nM"}
{"compound": "C=C(c1cccc2c1CNCC2)[C@H]1O[C@@H](n2ccc3c(C)ncnc32)[C@H](O)[C@]1(C)O [Example 85]", "endpoint value": "34 nM"}
{"compound": "Cc1ncnc2c1ccn2[C@@H]1O[C@H]([C@H](C)c2cccc3c2CNCC3)[C@@](C)(O)[C@H]1O [Example 86]", "endpoint value": "343 nM"}

Dear colleague, could you send me EC50 for each of the items below? Thanks.
1. C[C@@]1(O)[C@@H]([C@H](O)c2cccc3c2CNCC3)O[C@@H](n2ccc3c(N)ncnc32)[C@@H]1O [Example 70]
2. C[C@@]1(O)[C@@H]([C@@H](O)c2cccc3c2CNCC3)O[C@@H](n2ccc3c(N)ncnc32)[C@@H]1O [Example 71]
3. C[C@@]1(O)[C@@H]([C@H](O)c2ccc(F)c(Cl)c2)O[C@@H](n2ccc3c(N)ncnc32)[C@@H]1O [Example 15]

A)
1. 1.79 nM
2. 15.5 nM
3. 0.51 nM

====

Answer each item with its documented EC50.
Molecular target: PRMT5 (Homo sapiens, UniProt O14744)
Construct: endogenous in cells
Sequence (O14744 whole entry): as the sequence (O14744 whole entry) above
Sequence (Q9BQA1 whole entry partner): as the sequence (Q9BQA1 whole entry partner) above
Test: PRMT5 Cell Target Engagement (TE) Assay
Conditions: MCF-7 cells, 3 days treatment, nuclear SDMA by high content imaging
One number for each entry, in nM.

Would you please look over these solved cases?
{"molecule": "C[C@@]1(O)[C@@H]([C@H](O)c2cc(F)cc(Cl)c2)O[C@@H](n2ccc3c(N)ncnc32)[C@@H]1O", "EC50 / nM": 34}
{"molecule": "C[C@@]1(O)[C@@H]([C@H](O)c2cc(C(F)F)c(F)c3c2CNCC3)O[C@@H](n2ccc3c(N)ncnc32)[C@@H]1O", "EC50 / nM": 65}
{"molecule": "C[C@@]1(O)[C@@H]([C@H](O)c2cc(F)c(F)c(F)c2)O[C@@H](n2ccc3c(N)ncnc32)[C@@H]1O", "EC50 / nM": 227}
{"molecule": "C[C@@]1(O)[C@@H]([C@H](O)c2cncc(C(F)F)c2)O[C@@H](n2ccc3c(N)ncnc32)[C@@H]1O", "EC50 / nM": 2710}
{"molecule": "C[C@@]1(O)[C@@H]([C@H](O)c2cc(F)cc(F)c2)O[C@@H](n2ccc3c(N)ncnc32)[C@@H]1O", "EC50 / nM": 59}
{"molecule": "Cc1ncnc2c1ccn2[C@@H]1O[C@H]([C@@H](C)c2cccc3c2CNCC3)[C@@](C)(O)[C@H]1O", "EC50 / nM": 65}
{"molecule": "C[C@@]1(O)[C@@H]([C@H](O)c2cc(C(F)F)ccn2)O[C@@H](n2ccc3c(N)ncnc32)[C@@H]1O", "EC50 / nM": 2060}
{"molecule": "C[C@H](c1cc(F)cc(C(F)F)c1)[C@H]1O[C@@H](n2ccc3c(N)ncnc32)[C@H](O)[C@]1(C)O (single isomer, unassigned) [Example 84]", "EC50 / nM": 253}

Dear colleague, could you send me EC50 for each of the items below? Thanks.
1. C[C@@]1(O)[C@@H]([C@H](O)c2cc(F)cc(C(F)(F)F)c2)O[C@@H](n2ccc3c(N)ncnc32)[C@@H]1O
2. C=C(c1cccc2c1CNCC2)[C@H]1O[C@@H](n2ccc3c(C)ncnc32)[C@H](O)[C@]1(C)O
3. C[C@]1(O)[C@@H](O)[C@H](n2ccc3c(N)ncnc32)O[C@@H]1[C@](C)(O)c1cccc2c1CNCC2

A)
1. 301
2. 9380
3. 182

====

Molecular target: PRMT5-MEP50 enzyme complex (Homo sapiens, UniProt O14744)
Construct: Full-length (FL)-PRMT5-MEP50 enzyme complex (recombinant proteins from baculovirus-transfected Sf21 cells); made in house; host or cells: baculovirus-transfected Sf21 insect cells
Assay: PRMT5-MEP50 Enzyme Methylation Assay
Assay type: biochemical
Settings: second EC50 of 7 parameter biphasic fit; read-out: Enzyme Methylation Assay (EC50_2)
value type: pEC50
Give bare numbers, as −log10 of the molar value.

{"structure": "C[C@@]1(O)[C@@H]([C@@H](O)c2cccc3c2CNCC3)O[C@@H](n2ccc3c(N)ncnc32)[C@@H]1O", "endpoint value": 5.77}
{"structure": "C[C@@]1(O)[C@@H]([C@H](O)c2cccc3c2CNCC3)O[C@@H](n2ccc3c(N)ncnc32)[C@@H]1O", "endpoint value": 7.38}
{"structure": "Cc1ncnc2c1ccn2[C@@H]1O[C@H]([C@H](C)c2cccc3c2CNCC3)[C@@](C)(O)[C@H]1O", "endpoint value": 4.48}
{"structure": "C[C@@]1(O)[C@@H]([C@H](O)c2ccc(F)c(Cl)c2)O[C@@H](n2ccc3c(N)ncnc32)[C@@H]1O", "endpoint value": 7.12}
{"structure": "C[C@@]1(O)[C@@H]([C@H](O)c2ccc(Cl)c(Cl)c2)O[C@@H](n2ccc3c(N)ncnc32)[C@@H]1O", "endpoint value": 7.40}

Next compound, please.
Q) Name the value of pEC50 reported for C=C(c1cccc2c1CNCC2)[C@H]1O[C@@H](n2ccc3c(C)ncnc32)[C@H](O)[C@]1(C)O when tested on PRMT5-MEP50 enzyme complex (Homo sapiens, UniProt O14744).
A) 5.57

====

Biological target: PRMT5 (Homo sapiens, UniProt O14744)
Construct: endogenous in cells
Experiment: PRMT5 Cell Target Engagement (TE) Assay
Conditions: MCF-7 cells, 3 days treatment, nuclear SDMA by high content imaging
value type: EC50 (µM)
Answers are plain numbers, in µM.

{"structure": "COc1cccc([C@@H](O)[C@H]2O[C@@H](n3ccc4c(N)ncnc43)[C@H](O)[C@]2(C)O)c1", "system name": "PRMT5 (Homo sapiens, UniProt O14744)", "value type": "EC50", "endpoint value": 0.997}

Q) Return value of EC50 for input C[C@@]1(O)[C@@H]([C@H](O)c2ccc(F)c(F)c2F)O[C@@H](n2ccc3c(N)ncnc32)[C@@H]1O , no commentary.
A) 3.24

====

Target: PRMT5 (Homo sapiens, UniProt O14744)
Construct: endogenous in cells
Assay: PRMT5 Cell Target Engagement (TE) Assay
Details: MCF-7 cells, 3 days treatment, nuclear SDMA by high content imaging
Answer each item with its documented pEC50.
One number for each entry, as −log10 of the molar value.

Would you please look over these solved cases?
{"molecule": "C[C@@]1(O)[C@@H]([C@H](O)c2cccc(F)c2)O[C@@H](n2ccc3c(N)ncnc32)[C@@H]1O [Example 20]", "system name": "PRMT5 (Homo sapiens, UniProt O14744)", "endpoint value": 6.85}
{"molecule": "Cc1ncnc2c1ccn2[C@@H]1O[C@H]([C@H](O)c2cc(C(F)F)c(F)c3c2CNCC3)[C@@](C)(O)[C@H]1O (single isomer, unassigned) [Example 89]", "system name": "PRMT5 (Homo sapiens, UniProt O14744)", "endpoint value": 7.12}
{"molecule": "C[C@@]1(O)[C@@H]([C@H](O)c2ccnc(C(F)F)c2)O[C@@H](n2ccc3c(N)ncnc32)[C@@H]1O [Example 78]", "system name": "PRMT5 (Homo sapiens, UniProt O14744)", "endpoint value": 5.85}

Dear colleague, could you send me pEC50 for each of the items below? Thanks.
1. C[C@@]1(O)[C@@H]([C@H](O)c2cccc(C(F)(F)F)c2)O[C@@H](n2ccc3c(N)ncnc32)[C@@H]1O [Example 54]
2. C[C@]1(O)[C@@H](O)[C@H](n2ccc3c(N)ncnc32)O[C@@H]1[C@@](C)(O)c1cccc2c1CNCC2 [Example 69]
3. C[C@@]1(O)[C@@H]([C@H](O)c2ccc(F)c(C(F)F)c2F)O[C@@H](n2ccc3c(N)ncnc32)[C@@H]1O [Example 67]
4. C[C@@]1(O)[C@@H]([C@H](O)c2cccc(Cl)c2F)O[C@@H](n2ccc3c(N)ncnc32)[C@@H]1O [Example 46]
5. C[C@@]1(O)[C@@H]([C@H](O)c2ccc(F)c(F)c2)O[C@@H](n2ccc3c(N)ncnc32)[C@@H]1O [Example 1]
6. C[C@@]1(O)[C@@H]([C@H](O)c2cccc(C(F)F)c2)O[C@@H](n2ccc3c(N)ncnc32)[C@@H]1O [Example 56]

A)
1: 6.41; 2: 6.29; 3: 6.36; 4: 6.39; 5: 6.73; 6: 7.49

Dear colleague, could you send me pEC50 for each of the items below? Thanks.
1. C[C@@]1(O)[C@@H]([C@H](O)c2cccc(Cl)c2)O[C@@H](n2ccc3c(N)ncnc32)[C@@H]1O [Example 16]
2. C[C@H](c1cc(F)cc(C(F)F)c1)[C@H]1O[C@@H](n2ccc3c(N)ncnc32)[C@H](O)[C@]1(C)O (single isomer, unassigned) [Example 83]
3. C[C@@]1(O)[C@@H]([C@H](O)c2ccccc2)O[C@@H](n2ccc3c(N)ncnc32)[C@@H]1O [Example 11]
4. C[C@@]1(O)[C@@H]([C@H](O)c2cc(Cl)cc(C(F)(F)F)c2)O[C@@H](n2ccc3c(N)ncnc32)[C@@H]1O [Example 60]

A)
7.10
6.92
6.69
6.39

Q) Name the value of pEC50 reported for Cc1ncnc2c1ccn2[C@@H]1O[C@H]([C@H](C)c2cc(C(F)F)c(F)c3c2CNCC3)[C@@](C)(O)[C@H]1O (single isomer, unassigned) [Example 92] when tested on PRMT5 (Homo sapiens, UniProt O14744).
A) 6.56
